Origin of measurements: the supplement of paper PMC3545927

target: furin, P09958; assay: furin cleavage Z-score vs untreated control; higher = more cleavage, active = 3.5 or more, inactive = 1 or less, 8 variable residues between constant flanks; conditions: 7.5 min;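 further: purified furin at 1:10 enzyme:substrate in 50 mM HEPES pH 7.5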
Sequence (P09958 whole entry): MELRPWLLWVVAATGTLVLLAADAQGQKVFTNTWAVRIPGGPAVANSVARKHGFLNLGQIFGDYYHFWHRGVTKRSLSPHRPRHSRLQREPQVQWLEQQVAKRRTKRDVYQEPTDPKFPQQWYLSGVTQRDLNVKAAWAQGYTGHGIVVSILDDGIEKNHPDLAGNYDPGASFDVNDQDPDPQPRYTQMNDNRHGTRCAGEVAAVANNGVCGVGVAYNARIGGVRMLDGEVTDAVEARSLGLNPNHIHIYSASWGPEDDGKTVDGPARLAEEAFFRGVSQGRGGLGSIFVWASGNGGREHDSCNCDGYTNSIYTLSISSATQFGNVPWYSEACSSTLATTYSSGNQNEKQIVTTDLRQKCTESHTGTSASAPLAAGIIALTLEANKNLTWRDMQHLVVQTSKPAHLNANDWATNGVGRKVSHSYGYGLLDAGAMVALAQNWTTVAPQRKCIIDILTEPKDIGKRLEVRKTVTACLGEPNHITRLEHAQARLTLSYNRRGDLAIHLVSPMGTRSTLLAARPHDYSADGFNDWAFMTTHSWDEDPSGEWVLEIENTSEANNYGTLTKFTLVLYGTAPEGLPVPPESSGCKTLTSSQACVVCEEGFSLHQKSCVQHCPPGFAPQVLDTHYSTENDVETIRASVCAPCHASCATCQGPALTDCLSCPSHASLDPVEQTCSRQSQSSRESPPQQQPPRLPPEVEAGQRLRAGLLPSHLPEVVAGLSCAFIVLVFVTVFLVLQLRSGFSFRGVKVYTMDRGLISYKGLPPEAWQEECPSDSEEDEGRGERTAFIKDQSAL
The list shows a part of the results. The true hit rate is not given.
Please answer using one outcome listed in t for active, f for inactive

Example cases with answers are listed next.
INSERT INTO assay_data (sequence_entry, label_value) VALUES
  ('CARSYRDSGIAGNASASA [FS-2463]', 'f'),
  ('CAISPRQRRAAGNASASA [FS-543]', 't'),
  ('CARVARSRELAGNASASA [FS-1842]', 't'),
  ('CAEVVTSTQVAGNASASA [HC2242]', 'f'),
  ('CAGRGRGGGGAGNASASA [NG4]', 'f'),
  ('CARVDRDVAPAGNASASA [FS-2616]', 'f'),
  ('CAFLKRSGRDAGNASASA [FS-1324]', 't'),
  ('CAAVCTRGVAAGNASASA [HC752]', 'f'),
  ('CAEVVTSNWVAGNASASA [HC2221]', 'f'),
  ('CANIRTGVRTAGNASASA [HC799]', 'f');

Query string: Which outcome was entered for the sequence CAGNITRVESAGNASASA [HC1280] in this test?
Result string: f

Query string: Tell me the recorded outcome of this test for CAPRARCRRAAGNASASA [FS-138] .
Result string: t

Query string: Query: recorded result category for CAARAACRAAAGNASASA [HC1520] in this test
Result string: f
